These compounds were tested on UniProtKB Q07820; pIC50 is the recorded read-out.
Sequence (Q07820 whole entry, species assumed): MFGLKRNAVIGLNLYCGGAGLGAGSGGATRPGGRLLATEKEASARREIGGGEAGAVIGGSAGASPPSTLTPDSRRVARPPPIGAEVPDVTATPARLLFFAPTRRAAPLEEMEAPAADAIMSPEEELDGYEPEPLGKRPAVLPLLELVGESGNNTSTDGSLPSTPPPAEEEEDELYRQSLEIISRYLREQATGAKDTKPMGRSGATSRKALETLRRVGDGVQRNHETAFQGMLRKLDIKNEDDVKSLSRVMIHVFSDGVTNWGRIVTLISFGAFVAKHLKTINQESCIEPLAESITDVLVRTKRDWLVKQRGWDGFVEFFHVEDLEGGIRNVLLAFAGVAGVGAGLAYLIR
pIC50: −log10 of the molar value.

[
  {
    "query-smiles": "Cc1c(C(=O)O)c(-c2cccc(N3CCN(c4ccc(NS(=O)(=O)c5ccc(N[C@H](CCN(C)C)CSc6ccccc6)c(S(=O)(=O)C(F)(F)F)c5)cc4)CC3)c2)c(-c2ccc(Cl)cc2)n1C",
    "target-desc": "UniProtKB Q07820",
    "pIC50": "< 5.00"
  },
  {
    "query-smiles": "Cc1c(C(=O)O)c(-c2cccc(N3CCN(c4ccc(NS(=O)(=O)c5ccc(N[C@H](CCN6CCOCC6)CSc6ccccc6)c([N+](=O)[O-])c5)cc4)CC3)c2)c(-c2ccc(Cl)cc2)n1C",
    "target-desc": "UniProtKB Q07820",
    "pIC50": "< 5.00"
  },
  {
    "query-smiles": "CNC(=O)c1c(-c2cccc(N3CCN(c4ccc(NS(=O)(=O)c5ccc(N[C@H](CCN6CCOCC6)CSc6ccccc6)c([N+](=O)[O-])c5)cc4)CC3)c2)c(-c2ccc(Cl)cc2)n(C)c1C",
    "target-desc": "UniProtKB Q07820",
    "pIC50": "< 5.00"
  },
  {
    "query-smiles": "Cc1c(C(=O)O)c(-c2cccc(N3CCN(c4ccc(NS(=O)(=O)c5ccc(N[C@H](CCN(C)C)CSc6ccccc6)c([N+](=O)[O-])c5)cc4)CC3)c2)c(-c2ccc(Cl)cc2)n1C",
    "target-desc": "UniProtKB Q07820",
    "pIC50": "< 5.00"
  },
  {
    "query-smiles": "Cc1c(C(=O)NS(C)(=O)=O)c(-c2cccc(N3CCN(c4ccc(NS(=O)(=O)c5ccc(N[C@H](CCN(C)C)CSc6ccccc6)c([N+](=O)[O-])c5)cc4)CC3)c2)c(-c2ccc(Cl)cc2)n1C",
    "target-desc": "UniProtKB Q07820",
    "pIC50": "< 5.00"
  },
  {
    "query-smiles": "Cc1cc(-c2cccc(N3CCN(c4ccc(NS(=O)(=O)c5ccc(N[C@H](CCN(C)C)CSc6ccccc6)c([N+](=O)[O-])c5)cc4)CC3)c2)c(-c2ccc(Cl)cc2)n1C",
    "target-desc": "UniProtKB Q07820",
    "pIC50": "< 5.30"
  }
]

----------
- target-desc: Bcl-2 (Homo sapiens, UniProt P10415)
- Sequence (P10415 whole entry): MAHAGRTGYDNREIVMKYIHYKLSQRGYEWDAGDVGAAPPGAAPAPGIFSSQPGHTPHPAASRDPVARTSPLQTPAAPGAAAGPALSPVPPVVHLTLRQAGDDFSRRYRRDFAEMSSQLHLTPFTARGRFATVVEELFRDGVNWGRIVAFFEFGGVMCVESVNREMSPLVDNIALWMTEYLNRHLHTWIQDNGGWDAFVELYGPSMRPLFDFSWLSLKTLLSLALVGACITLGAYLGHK
- test-name: FP-based binding assay, Bcl-2
pKi: −log10 of the molar value.
test-readout: pKi

[
  {
    "compound": "Cc1c(C(=O)NCCCN2CCN(C)CC2)c(-c2cccc(N3CCN(c4ccc(NS(=O)(=O)c5ccc(N[C@H](CCN(C)C)CSc6ccccc6)c([N+](=O)[O-])c5)cc4)CC3)c2)c(-c2ccc(Cl)cc2)n1C [Compound 150]",
    "value-reported": "> 9.00"
  },
  {
    "compound": "Cc1c(C(=O)O)c(-c2cccc(N3CCN(c4ccc(NS(=O)(=O)c5ccc(N[C@H](CCN6CCOCC6)CSc6ccccc6)c(S(=O)(=O)C(F)(F)F)c5)cc4)CC3)c2)c(-c2ccc(Cl)cc2)n1C [Compound 186]",
    "value-reported": 8.47
  },
  {
    "compound": "Cc1c(C(=O)O)c(-c2cccc(N3CCN(c4ccc(NS(=O)(=O)c5ccc(N[C@H](CCN(C)C)CSc6ccccc6)c(S(=O)(=O)C(F)(F)F)c5)cc4)CC3)c2)c(-c2ccc(Cl)cc2)n1C [Compound 185]",
    "value-reported": "> 9.00"
  },
  {
    "compound": "Cc1c(C(=O)O)c(-c2cccc(N3CCN(c4ccc(NS(=O)(=O)c5ccc(N[C@H](CCN(C)C)CSc6ccccc6)c([N+](=O)[O-])c5)cc4)CC3)c2)c(-c2ccc(Cl)cc2)n1C [Compound 178]",
    "value-reported": "> 9.00"
  },
  {
    "compound": "Cc1c(C(=O)O)c(-c2cccc(N3CCN(c4ccc(NS(=O)(=O)c5ccc(N[C@H](CCN6CCOCC6)CSc6ccccc6)c([N+](=O)[O-])c5)cc4)CC3)c2)c(-c2ccc(Cl)cc2)n1C [Compound 187]",
    "value-reported": "> 9.00"
  },
  {
    "compound": "CNC(=O)c1c(-c2cccc(N3CCN(c4ccc(NS(=O)(=O)c5ccc(N[C@H](CCN6CCOCC6)CSc6ccccc6)c([N+](=O)[O-])c5)cc4)CC3)c2)c(-c2ccc(Cl)cc2)n(C)c1C [Compound 124]",
    "value-reported": 8.52
  },
  {
    "compound": "Cc1c(C(=O)NS(C)(=O)=O)c(-c2cccc(N3CCN(c4ccc(NS(=O)(=O)c5ccc(N[C@H](CCN(C)C)CSc6ccccc6)c([N+](=O)[O-])c5)cc4)CC3)c2)c(-c2ccc(Cl)cc2)n1C [Compound 133]",
    "value-reported": "> 9.00"
  }
]

----------
- target-desc: UniProtKB P10415
- test-name: FP-based binding assay, Bcl-2
This listing pairs compounds with measured IC50.

[
  {
    "query-smiles": "Cc1c(C(=O)O)c(-c2cccc(N3CCN(c4ccc(NS(=O)(=O)c5ccc(N[C@H](CCN6CCOCC6)CSc6ccccc6)c(S(=O)(=O)C(F)(F)F)c5)cc4)CC3)c2)c(-c2ccc(Cl)cc2)n1C",
    "IC50 [nM]": 14
  },
  {
    "query-smiles": "CNC(=O)c1c(-c2cccc(N3CCN(c4ccc(NS(=O)(=O)c5ccc(N[C@H](CCN6CCOCC6)CSc6ccccc6)c([N+](=O)[O-])c5)cc4)CC3)c2)c(-c2ccc(Cl)cc2)n(C)c1C",
    "IC50 [nM]": 14
  },
  {
    "query-smiles": "Cc1c(C(=O)O)c(-c2cccc(N3CCN(c4ccc(NS(=O)(=O)c5ccc(N[C@H](CCN6CCOCC6)CSc6ccccc6)c([N+](=O)[O-])c5)cc4)CC3)c2)c(-c2ccc(Cl)cc2)n1C",
    "IC50 [nM]": 2
  },
  {
    "query-smiles": "Cc1c(C(=O)O)c(-c2cccc(N3CCN(c4ccc(NS(=O)(=O)c5ccc(N[C@H](CCN(C)C)CSc6ccccc6)c([N+](=O)[O-])c5)cc4)CC3)c2)c(-c2ccc(Cl)cc2)n1C",
    "IC50 [nM]": 1
  },
  {
    "query-smiles": "Cc1c(C(=O)NS(C)(=O)=O)c(-c2cccc(N3CCN(c4ccc(NS(=O)(=O)c5ccc(N[C@H](CCN(C)C)CSc6ccccc6)c([N+](=O)[O-])c5)cc4)CC3)c2)c(-c2ccc(Cl)cc2)n1C",
    "IC50 [nM]": 1
  },
  {
    "query-smiles": "Cc1c(C(=O)O)c(-c2cccc(N3CCN(c4ccc(NS(=O)(=O)c5ccc(N[C@H](CCN(C)C)CSc6ccccc6)c(S(=O)(=O)C(F)(F)F)c5)cc4)CC3)c2)c(-c2ccc(Cl)cc2)n1C",
    "IC50 [nM]": 2.2
  }
]

----------
- target-desc: Bcl-xL (Homo sapiens, UniProt Q07817)
- Sequence (Q07817 whole entry): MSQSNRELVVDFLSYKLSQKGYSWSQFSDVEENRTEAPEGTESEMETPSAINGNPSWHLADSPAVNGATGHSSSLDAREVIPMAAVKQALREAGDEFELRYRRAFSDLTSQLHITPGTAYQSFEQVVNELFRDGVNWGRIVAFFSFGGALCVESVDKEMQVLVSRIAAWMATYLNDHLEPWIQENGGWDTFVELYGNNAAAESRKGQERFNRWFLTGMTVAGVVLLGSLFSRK
- test-name: FP-based binding assay, Bcl-xL
- condition-label: Binding Affinities Bcl-xL Ki ± SD (nM), Table 4; * Ki is an estimate, compound more potent than the tracer

[
  {
    "query-smiles": "Cc1c(C(=O)NS(C)(=O)=O)c(-c2cccc(N3CCN(c4ccc(NS(=O)(=O)c5ccc(N[C@H](CCN(C)C)CSc6ccccc6)c([N+](=O)[O-])c5)cc4)CC3)c2)c(-c2ccc(Cl)cc2)n1C",
    "Ki": "1.3 nM"
  },
  {
    "query-smiles": "Cc1c(C(=O)O)c(-c2cccc(N3CCN(c4ccc(NS(=O)(=O)c5ccc(N[C@H](CCN(C)C)CSc6ccccc6)c(S(=O)(=O)C(F)(F)F)c5)cc4)CC3)c2)c(-c2ccc(Cl)cc2)n1C",
    "Ki": "1.3 nM"
  },
  {
    "query-smiles": "Cc1c(C(=O)O)c(-c2cccc(N3CCN(c4ccc(NS(=O)(=O)c5ccc(N[C@H](CCN6CCOCC6)CSc6ccccc6)c([N+](=O)[O-])c5)cc4)CC3)c2)c(-c2ccc(Cl)cc2)n1C",
    "Ki": "1.3 nM"
  },
  {
    "query-smiles": "Cc1c(C(=O)O)c(-c2cccc(N3CCN(c4ccc(NS(=O)(=O)c5ccc(N[C@H](CCN6CCOCC6)CSc6ccccc6)c(S(=O)(=O)C(F)(F)F)c5)cc4)CC3)c2)c(-c2ccc(Cl)cc2)n1C",
    "Ki": "1.6 nM"
  },
  {
    "query-smiles": "CNC(=O)c1c(-c2cccc(N3CCN(c4ccc(NS(=O)(=O)c5ccc(N[C@H](CCN(C)C)CSc6ccccc6)c([N+](=O)[O-])c5)cc4)CC3)c2)c(-c2ccc(Cl)cc2)n(C)c1C",
    "Ki": "1.6 nM"
  },
  {
    "query-smiles": "CNC(=O)c1c(-c2cccc(N3CCN(c4ccc(NS(=O)(=O)c5ccc(N[C@H](CCN6CCOCC6)CSc6ccccc6)c([N+](=O)[O-])c5)cc4)CC3)c2)c(-c2ccc(Cl)cc2)n(C)c1C",
    "Ki": "1 nM"
  },
  {
    "query-smiles": "Cc1c(C(=O)O)c(-c2cccc(N3CCN(c4ccc(NS(=O)(=O)c5ccc(N[C@H](CCN(C)C)CSc6ccccc6)c([N+](=O)[O-])c5)cc4)CC3)c2)c(-c2ccc(Cl)cc2)n1C",
    "Ki": "1.6 nM"
  }
]
